- system-name: c-Met (Homo sapiens, UniProt P08581)
- Sequence (P08581 25-1390): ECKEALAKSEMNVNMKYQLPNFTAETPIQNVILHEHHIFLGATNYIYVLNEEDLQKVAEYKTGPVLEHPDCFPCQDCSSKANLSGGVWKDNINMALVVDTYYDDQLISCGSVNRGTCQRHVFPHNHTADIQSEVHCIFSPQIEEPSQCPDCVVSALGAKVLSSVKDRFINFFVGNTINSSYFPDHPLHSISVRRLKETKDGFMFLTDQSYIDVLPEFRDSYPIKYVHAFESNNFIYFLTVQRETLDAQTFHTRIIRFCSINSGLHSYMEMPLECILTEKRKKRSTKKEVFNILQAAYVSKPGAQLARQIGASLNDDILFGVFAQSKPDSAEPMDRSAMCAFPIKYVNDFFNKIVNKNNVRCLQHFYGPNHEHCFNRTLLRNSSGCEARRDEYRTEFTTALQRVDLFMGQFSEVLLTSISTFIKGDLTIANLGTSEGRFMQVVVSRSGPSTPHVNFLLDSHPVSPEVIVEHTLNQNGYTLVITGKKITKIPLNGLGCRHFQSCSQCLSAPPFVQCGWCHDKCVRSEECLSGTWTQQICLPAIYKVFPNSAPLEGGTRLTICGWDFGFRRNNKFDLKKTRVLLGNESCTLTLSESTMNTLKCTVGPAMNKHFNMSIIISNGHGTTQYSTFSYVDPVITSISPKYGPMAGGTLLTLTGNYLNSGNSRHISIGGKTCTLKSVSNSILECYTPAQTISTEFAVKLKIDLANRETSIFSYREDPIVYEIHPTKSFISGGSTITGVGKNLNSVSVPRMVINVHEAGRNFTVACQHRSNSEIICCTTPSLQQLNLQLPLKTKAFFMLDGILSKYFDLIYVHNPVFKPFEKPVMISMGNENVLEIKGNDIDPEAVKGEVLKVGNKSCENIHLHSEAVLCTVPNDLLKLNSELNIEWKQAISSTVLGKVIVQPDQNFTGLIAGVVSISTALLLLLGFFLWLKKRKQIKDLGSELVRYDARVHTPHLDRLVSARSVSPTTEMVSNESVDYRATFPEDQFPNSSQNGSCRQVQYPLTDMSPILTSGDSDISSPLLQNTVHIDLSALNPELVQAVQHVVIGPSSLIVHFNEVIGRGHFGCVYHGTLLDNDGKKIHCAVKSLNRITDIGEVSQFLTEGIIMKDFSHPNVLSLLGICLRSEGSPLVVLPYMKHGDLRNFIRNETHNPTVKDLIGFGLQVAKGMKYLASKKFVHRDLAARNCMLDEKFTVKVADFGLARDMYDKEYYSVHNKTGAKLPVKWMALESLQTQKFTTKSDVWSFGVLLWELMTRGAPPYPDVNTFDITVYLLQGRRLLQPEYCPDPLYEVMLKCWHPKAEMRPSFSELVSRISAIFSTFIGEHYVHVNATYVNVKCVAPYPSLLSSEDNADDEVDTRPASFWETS
pKi: −log10 of the molar value.
quantity-kind: pKi

{"compound": "NC1CCN(Cc2cccc(C3=CN4NC(N)C(c5ccccn5)=C4N=C3)c2)CC1 (centres unmarked) [Compound V-229]", "system-name": "c-Met (Homo sapiens, UniProt P08581)", "pKi": "> 6.30"}
{"compound": "Nc1nn2cc(Cl)cnc2c1-c1ccccn1 [Compound V-280]", "system-name": "c-Met (Homo sapiens, UniProt P08581)", "pKi": "5.30 to 6.30"}
{"compound": "Cc1cnc2c(-c3cc(N4CCCC(CO)C4)ncn3)c(N)nn2c1 (centres unmarked) [Compound V-340]", "system-name": "c-Met (Homo sapiens, UniProt P08581)", "pKi": "> 6.30"}
{"compound": "COc1ccc(-c2cnc3c(-c4ccccn4)c(N)nn3c2)cn1 [Compound V-50]", "system-name": "c-Met (Homo sapiens, UniProt P08581)", "pKi": "> 6.30"}

Now for another entry.
Request body: readout pKi, system c-Met (Homo sapiens, UniProt P08581), query Nc1nn2cc(N3CCCCC3)cnc2c1-c1ccccn1 [Compound V-59] . Return the value.
5.30 to 6.30
